- System: RPMI-8226 leukemia
- measurement-notes: NCI-60 one-dose screen, 48 h (100 = growth as untreated, 0 = no growth, -100 = all killed)
- settings: 10 µM unless noted
The panel holds about 83,000 compounds, 20% with a hit somewhere; the sample as a whole holds those more often.
Assign labels as follows, please: yes for growth below 50%; no for growth equal to or exceeding 50%.

INSERT INTO results (compound, class_name) VALUES
  ('COC(=O)[C@H](Cc1c[nH]c2ccccc12)NC(=O)[C@@H](OC)[C@@H]1Cc2cc3cc(OC4CC(OC5CC(O)C(O)C(C)O5)C(O)C(C)O4)c(C)c(O)c3c(O)c2C(=O)[C@H]1OC1CC(OC2CC(OC3CC(C)(O)C(O)C(C)O3)C(O)C(C)O2)C(O)C(C)O1 (stereo not given in full)', 'yes'),
  ('CCN(CC)c1ccc2c(c1)OC(N)=C(C#N)C2c1cc(OC)c2c(c1)OCO2 (stereo not given)', 'yes'),
  ('CCCCNC(c1ccc(Cl)cc1)C(O)c1ccc(Cl)cc1 (stereo not given)', 'yes'),
  ('Cc1c(O)c(CN(CCCl)CCCl)cc(CN(CCCl)CCCl)c1O', 'no'),
  ('O=C(O)C(Cl)(Cl)C(F)(F)F', 'no'),
  ('C[Se]C(=O)c1ccccc1OC(C)=O', 'no'),
  ('O=C(CCl)c1ccc([N+](=O)[O-])o1', 'yes'),
  ('O=C1NC(=O)C(=Cc2cccn2CCCCCn2c3ccccc3c(=O)c3ccccc32)C(=O)N1', 'no'),
  ('CCCc1cc(O)c2c3c(c(=O)oc2c1)CN(C)CC3', 'yes'),
  ('O=C1C(N2CC2)=C(N2CC2)C(=O)C(N2CC2)=C1N1CC1', 'yes'),
  ('CC(=O)O[C@H](C[C@H](C(C)C)N(C)C(=O)[C@@H](NC(=O)[C@H]1CCCCN1C)C(C)C)c1nc(C(=O)N[C@@H](Cc2ccccc2)C[C@H](C)C(=O)O)c(CCOCc2ccccc2)s1', 'yes'),
  ('CN(C)CCCOc1ccc2c(c1)c(C(=O)C(=O)NCCO)cn2Cc1ccccc1', 'no'),
  ('COc1cc(/C=C\c2cc(OC)c(OC)c(OC)c2)cc(N/C=C\C(=O)c2cc(OC)c(OC)c(OC)c2)c1OC', 'yes'),
  ('COc1cccc2c1c(C(=O)C(=O)Nc1cc(C)no1)cn2Cc1ccc(F)cc1', 'yes'),
  ('CCC[CH2][Sn]([CH2]CCC)([CH2]CCC)[O]c1ccc(Cl)cc1Cl', 'yes'),
  ('COc1ccc(NC([Se])=NC23CC4CC(CC(C4)C2)C3)cc1', 'yes'),
  ('O=C(CC1(O)C(=O)N(Cc2ccccc2)c2ccc(Br)cc21)c1ccc(C(=O)NCC2CCC3(CC2)OOC2(CCCCC2)OO3)cc1 (stereo not given)', 'yes');
